Measurement Description: chemical genetic growth profiling, strain panel (AID 1159580);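 also: tested at 20 µM; growth read once vehicle control cultures reached saturation at 30 °C; 1 = growth at the plate median or of vehicle wells; lower values mean less growth of the strain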
Condition Set: S. cerevisiae deletion strains, growth OD, locus YLR085C, strain ARP6, active compounds read low
Screen size: about 5,500 compounds; about 2,000 (36%) were called active. Not shown: some 18% with an inconclusive outcome. The list shows a part of the results.
normalized growth listing for selected compounds.
Test Readout: normalized growth

1) CC(C)(C)c1ccc(-c2cc(N)c(C(N)=O)s2)cc1 ... 0.987
2) Cc1ccc(-c2nn(-c3ccccc3)c(=O)c3ccccc23)cc1C ... 0.736
3) CC(C)(C)c1cc(-c2cc(C(F)(F)F)[nH]n2)c2c(c1)C(C)(C)CC2 ... 1.03
4) CC(=O)c1cc2cc(Br)ccc2oc1=O ... 0.936
5) COc1cccc(Nc2nc3ccccc3s2)c1 ... 0.138
6) COc1cc(C=Nc2ccc(F)cc2)cc(OC)c1OC ... 0.965
7) CC(=O)NC(=O)/C(C#N)=C/N1CCN(Cc2ccccc2)CC1 ... 1.07
8) O=C(Nc1cccnc1)c1cccc(Cl)c1Cl ... 0.955
9) C=CCn1c(COc2c(Br)cc(C)c3c2CCC3)n[nH]c1=S ... 0.558
10) CC(=O)c1cc2ccccc2oc1=O ... 1.08
11) COc1cccc(NC(N)=S)c1 ... 1.02
12) Cn1c(=O)c(-c2ccccc2)c(O)c2ccccc21 ... 0.438
13) CC(C)(C)c1ccc(CSc2nc(N)cc(=O)[nH]2)cc1 ... 0.898
14) COc1cc2nc(-c3cccs3)oc(=O)c2cc1OC ... 0.936
15) NS(=O)(=O)c1ccc(-n2ncc3ccccc3c2=O)cc1 ... 0.984

====

Measurement Description: chemical genetic growth profiling, strain panel (AID 1159580);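 also: tested at 20 µM; growth read once vehicle control cultures reached saturation at 30 °C; 1 = growth at the plate median or of vehicle wells; lower values mean less growth of the strain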
Condition Set: S. cerevisiae deletion strains, growth OD, locus YPR167C, strain met16, active compounds read low
Screen size: about 5,500 compounds; about 2,000 (36%) were called active. About 18% were inconclusive and are not listed. The list shows a part of the results.
Test Readout: normalized growth

1. CC(=O)O[C@H]1CC[C@]2(C)C3CC[C@@]4(C)C(CC5O[C@@]6(CCC(C)CO6)[C@@H](C)C54)C3CC[C@H]2C1 (some centres undefined) ... 0.979 (inactive)
2. CC(=O)O[C@H]1CC[C@]2(C)C3CC(=O)[C@]4(C)C(C(C)=O)=CCC4C3CC[C@H]2C1 (some centres undefined) ... 0.994 (inactive)
3. CC(=O)O[C@@H]1CC[C@]2(C)C3CC[C@]4(C)C(=O)CCC4C3CC[C@H]2C1 (some centres undefined) ... 0.942 (inactive)
4. CC(=O)O[C@H]1CC[C@]2(C)C3CC[C@@]4(C)C(CC5O[C@@]6(CCC(C)CO6)[C@@H](C)C54)C3CC[C@@H]2C1 (some centres undefined) ... 1 (inactive)

====

Measurement Description: chemical genetic growth profiling, strain panel (AID 1159580);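 also: tested at 20 µM; growth read once vehicle control cultures reached saturation at 30 °C; 1 = growth at the plate median or of vehicle wells; lower values mean less growth of the strain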
Condition Set: S. cerevisiae deletion strains, growth OD, locus YDL214C, strain PRR2, active compounds read low
The campaign covered roughly 5,500 compounds. About 2,000 (36%) were called active. Inconclusive results (about 18%) are left out. This is one part of the list.
Consider the cut-off 0.9. If the recorded normalized growth is strictly smaller, the label is 1.0; if not, the label is 0.0.

1. O=c1c(-c2ccccc2)c(O)c2cccc3c4c(n1c23)CCCC4 ... 1.0
2. Cc1ccc2nc(-c3ccc([N+](=O)[O-])o3)oc(=O)c2c1 ... 1.0
3. C/C(=N/NC(=O)c1ccc(C(C)(C)C)cc1)c1ccccc1O ... 0.0
4. N#C/C(=N/Nc1cccc(C(F)(F)F)c1)C(=O)c1csc(-c2cccnc2)n1 ... 1.0
5. O=C(Nc1cc2c(s1)-c1cc(Cl)ccc1SC2)Oc1ccccc1 ... 0.0
6. CC(C)(C)C(=O)c1sc2sc(C(=O)C(C)(C)C)c(N)c2c1N ... 1.0
7. O=C(c1cc2c(s1)-c1ccccc1CC2)N1CCN(Cc2ccccc2)CC1 ... 0.0
8. COc1ccc(C2CC(c3ccc(C)cc3C)=NN2C(C)=O)cc1 (stereo unspecified) ... 1.0
9. CC(=O)c1ccccc1C(=O)c1ccc(C(C)(C)C)cc1 ... 0.0
10. CS/C(Nc1cccc(C(F)(F)F)c1)=C(/C#N)S(=O)(=O)c1ccc(Cl)cc1 ... 0.0
